- Test system: Saccharomyces cerevisiae;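 also: PSI is a weighted mean of sequencing reads over stability bins, variants kept only with over 10 reads, mCherry proximal and sfGFP distal, peptide attached via GGGS linker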
- test-description: protein stability index of tFT-peptide fusion (C-terminal peptide) (PSI (0-1 scale)); higher = more stable (slower turnover)
- settings: genetic background: das1 deletion; temperature: 37 C
Listed below: protein stability index values for each entry.
measured-endpoint: protein stability index

{"sequence-text": "GLWLCRGLVRAW", "test-target": "Saccharomyces cerevisiae", "measured-endpoint": "protein stability index", "reported-value": 0.46}
{"sequence-text": "KERHRNKRKQIA", "test-target": "Saccharomyces cerevisiae", "measured-endpoint": "protein stability index", "reported-value": 0.705}
{"sequence-text": "KIRGYLMPLTLL", "test-target": "Saccharomyces cerevisiae", "measured-endpoint": "protein stability index", "reported-value": 0.709}
{"sequence-text": "ALRLVAFFWVPG", "test-target": "Saccharomyces cerevisiae", "measured-endpoint": "protein stability index", "reported-value": 0.539}
{"sequence-text": "LCAFLKLFILII", "test-target": "Saccharomyces cerevisiae", "measured-endpoint": "protein stability index", "reported-value": 0.325}
{"sequence-text": "GVWLRAVRGFGV", "test-target": "Saccharomyces cerevisiae", "measured-endpoint": "protein stability index", "reported-value": 0.761}
{"sequence-text": "ACEFRFFYVFRC", "test-target": "Saccharomyces cerevisiae", "measured-endpoint": "protein stability index", "reported-value": 0.425}
{"sequence-text": "KLSLRYLLVSLI", "test-target": "Saccharomyces cerevisiae", "measured-endpoint": "protein stability index", "reported-value": 0.606}
{"sequence-text": "HIVYCSSEQIKC", "test-target": "Saccharomyces cerevisiae", "measured-endpoint": "protein stability index", "reported-value": 0.589}
{"sequence-text": "LHSDHLRIILRI", "test-target": "Saccharomyces cerevisiae", "measured-endpoint": "protein stability index", "reported-value": 0.659}
{"sequence-text": "KERNKISQRKLT", "test-target": "Saccharomyces cerevisiae", "measured-endpoint": "protein stability index", "reported-value": 0.714}
{"sequence-text": "RMLSLFFPLRTL", "test-target": "Saccharomyces cerevisiae", "measured-endpoint": "protein stability index", "reported-value": 0.724}
{"sequence-text": "VGFCICISIMSF", "test-target": "Saccharomyces cerevisiae", "measured-endpoint": "protein stability index", "reported-value": 0.214}
{"sequence-text": "TVETYNRARKAS", "test-target": "Saccharomyces cerevisiae", "measured-endpoint": "protein stability index", "reported-value": 0.7}
{"sequence-text": "FLTSPSVWRYLF", "test-target": "Saccharomyces cerevisiae", "measured-endpoint": "protein stability index", "reported-value": 0.755}
{"sequence-text": "FFRAYLQMYVTD", "test-target": "Saccharomyces cerevisiae", "measured-endpoint": "protein stability index", "reported-value": 0.406}
{"sequence-text": "SHPAPPSPPPSP", "test-target": "Saccharomyces cerevisiae", "measured-endpoint": "protein stability index", "reported-value": 0.537}
{"sequence-text": "TSFCIFFVRFVI", "test-target": "Saccharomyces cerevisiae", "measured-endpoint": "protein stability index", "reported-value": 0.509}
{"sequence-text": "DCRFIIFYCVMV", "test-target": "Saccharomyces cerevisiae", "measured-endpoint": "protein stability index", "reported-value": 0.509}
{"sequence-text": "CGLGKVLGWRWV", "test-target": "Saccharomyces cerevisiae", "measured-endpoint": "protein stability index", "reported-value": 0.745}
{"sequence-text": "VWWTLWRVHMLG", "test-target": "Saccharomyces cerevisiae", "measured-endpoint": "protein stability index", "reported-value": 0.715}
{"sequence-text": "PSPVRSSYASTL", "test-target": "Saccharomyces cerevisiae", "measured-endpoint": "protein stability index", "reported-value": 0.722}
{"sequence-text": "APASFRVLISAF", "test-target": "Saccharomyces cerevisiae", "measured-endpoint": "protein stability index", "reported-value": 0.102}

Each recorded value in this set is attributed to the supplement of paper PMC10724198.
